Numbers sourced from patent US20250382332A1.

Inhibition at 20 μM for assorted molecules
- System: Botrytis cinerea (B05.10)
- TEST_NAME: Resazurin antifungal assay of 180 alpha-factor peptide variants towards Botrytis (Example 2)
- Format: cell-based
- CONDITION_DETAILS: % inhibition of fungal growth, Botrytis conidia, peptide 20 μM, resazurin
- Description: The antifungal activity of 180 alpha-factor peptide variants towards Botrytis was tested. Experimental design: […] Fungal conidia were harvested by scraping a Botrytis plate flooded with 1 ml water with 0.1% Tween 80 solution. […] The conidia concentration of the resulting solution was counted using a hemocytometer. […] Peptides were tested for activity against Botrytis, using the resazurin assay. […] Fluorescence was measured at 570/620 nm after 4 h of incubation with resazurin. […]
Peptide text beside a SMILES is read from it.
READOUT_LABEL: Inhibition at 20 μM

CSCC[C@H](NC(=O)[C@@H]1CCCN1C(=O)[C@H](CCC(N)=O)NC(=O)CNC(=O)[C@@H](NC(=O)[C@H](CCCCN)NC(=O)[C@H](Cc1ccccc1)NC(=O)[C@H](CCC(N)=O)NC(=O)[C@H](CC(C)C)NC(=O)[C@H](CC(C)C)NC(=O)[C@H](Cc1c[nH]cn1)NC(=O)[C@@H](N)Cc1c[nH]c2ccccc12)C(C)C)C(=O)N[C@@H](Cc1ccc(O)cc1)C(=O)O [compound 25] (H-WHLLQFKVGQPMY-OH; N-terminus and C-terminus assumed) = <90%
CSCC[C@H](NC(=O)[C@@H]1CCCN1C(=O)[C@H](CCC(N)=O)NC(=O)CNC(=O)[C@@H]1CCCN1C(=O)[C@H](Cc1c[nH]cn1)NC(=O)[C@H](CC(C)C)NC(=O)[C@H](CCCCN)NC(=O)[C@@H](NC(=O)[C@H](Cc1ccccc1)NC(=O)[C@H](Cc1c[nH]cn1)NC(=O)[C@@H](N)Cc1c[nH]c2ccccc12)C(C)C)C(=O)N[C@@H](Cc1ccc(O)cc1)C(=O)O [compound 74] (H-WHFVKLHPGQPMY-OH; N-terminus and C-terminus assumed) = <90%
